Measured values drawn from patent US20250263408A1 for this set.

# measured-target: Ba/F3-Syk cells (Homo sapiens, UniProt P43405)
# Construct: fused on or other part: Possible but unprinted fusion partner: TEL (ETV6), the usual partner for Ba/F3 lines transformed by Syk; Nothing on a partner is printed
# procedure-details: Ba/F3 Proliferation Assay, Ba/F3-Syk cells (Resazurin)
# details: 48-hour incubation
reported-endpoint: pEC50
Answers are plain numbers, as −log10 of the molar value.

Take a look at these entries with their results.
CC[C@@H](C)n1cc(-c2cc3ncccc3c(OC[C@@H]3CNCCO3)n2)cn1 [Compound 6.32] :: 7.04
Cn1ccc(-c2cc3ncccc3c(OC[C@@H]3CNCCO3)n2)c1 [Compound 2.20] :: 7.06
c1cnc2cc(-c3cncs3)nc(OC[C@@H]3CNCCO3)c2c1 [Compound 2.29] :: 5.99

Please report pEC50 for every entry that follows.
1. Cn1cc(-c2cc3ncccc3c(OC[C@@H]3CNCCCO3)n2)cn1 [Compound 2.50]
2. Cc1cc(-c2cc3ncccc3c(OC[C@@H]3CNCCO3)n2)sc1Cl [Compound 2.35]
3. Cn1cc(-c2cc3ncccc3c(OC[C@@H]3CNCC(C)(C)CO3)n2)cn1 [Compound 10.10]

1: 6.82; 2: 6.18; 3: 6.57

---

# Test system: Ba/F3-WT (wild type) cells
# procedure-details: Ba/F3 Proliferation Assay, Ba/F3-WT (wild type) cells with mIL-3 (Resazurin)
# Format: cell-based
# details: Mus musculus, BaF3, 48 h, Ba/F3-WT cells +mIL-3, 48-hour incubation
reported-endpoint: EC50

Take a look at these entries with their results.
CC(C)(C)n1cc(-c2cc3ncccc3c(O[C@@H]3CC[C@@H]4NCCO[C@@H]43)n2)cn1 (relative stereo) [Compound 2.90] :: > 1 µM
C[C@H](Oc1cc(-c2cnn(C(C)(C)C)c2)cc2ncccc12)[C@@H]1CNCCO1 [Compound 14.1] :: > 10 µM

Lab note: next compound to report on.
Which EC50 is reported for this compound? c1cnc2cc(-c3cnn([C@H]4CCOC4)c3)nc(OC[C@@H]3CNCCO3)c2c1 [Compound 6.44]
> 1 µM

---

Record form. Attribute: pEC50. Fill in for each entry.
# Tested on: Ba/F3-WT (wild type) cells
# procedure-details: Ba/F3 Proliferation Assay, Ba/F3-WT (wild type) cells with mIL-3 (Resazurin)
# Format: cell-based
# details: Mus musculus, BaF3, 48 h, Ba/F3-WT cells +mIL-3, 48-hour incubation
Numbers only, as −log10 of the molar value.

Please report pEC50 for every entry that follows.
1. CC(C)n1cc(-c2cc(OC[C@@H]3CNCCO3)c3cccnc3c2)cn1 [Compound 3.4]
2. c1cnc2cc(-c3cnn(C4CCC4)c3)cc(OC[C@@H]3CNCCO3)c2c1 [Compound 3.5]
3. CC1(C)CNC[C@@H](COc2cc(-c3cnn(C(C)(C)C)c3)cc3ncccc23)O1 [Compound 3.2]
4. CC(C)n1cc(-c2cc3ncccc3c(O[C@H](C)[C@@H]3CNCCO3)n2)cn1 [Compound 2.66]

[6.03, 6.05, 5.62, 5.99]

Please report pEC50 for every entry that follows.
1. CC1(C)CNC[C@@H](COc2nc(-c3cnn(C4(C)CCC4)c3)cc3ncccc23)O1 [Compound 2.87]
2. CC1(C)CNC[C@@H](COc2nc(-c3cnn(C4CC4)c3)cc3ncccc23)O1 [Compound 2.46]
3. C[C@@H]1NCCO[C@@H]1COc1nc(-c2ccn(C)c2)cc2ncccc12 [Compound 13.5]
4. CC(C)n1ccc(-c2cc(OC[C@@H]3CNCCO3)c3cccnc3c2)c1 [Compound 7.1]
5. CC(C)n1ccc(-c2cc(O[C@H](C)[C@@H]3CNCC(C)(C)O3)c3nccnc3c2)c1 [Compound 8.11]
6. CC1(C)CNC[C@@H](COc2nc(-c3cnn(C(C)(C)C)c3)cc3ncccc23)O1 [Compound 2.42]
7. COCCn1ccc(-c2cc3ncccc3c(OC[C@@H]3CNCC4(CC4)O3)n2)c1 [Compound 6.23]
8. Cc1ccnc2cc(-c3cnn(C(C)C)c3)cc(OC[C@@H]3CNCC(C)(C)O3)c12 (stereo in doubt) [Compound 14.7]

[5.96, 5.46, 5.20, 5.56, 6.20, 5.63, 5.68, 6.03]

Which pEC50 is reported for this compound? C[C@H]1CNC[C@@H](COc2nc(-c3cnn(C)c3)cc3ncccc23)O1 (relative stereo) [Compound 2.24]
5.82
